These measurements were taken from patent US20180044434A1.

Please respond with reported OD 490/630 nm for every item in the list.
measured-target: T1, Ala mutant of TA0096, SEQ ID NO: 33
T1 peptide: EENMDDAWMQDEMEIGY
measurement-description: ELISA, coated peptide
Answers are plain numbers.

Respond only with OD 490/630 nm recorded for A11 (antibody, V domains shown, Chicken variable regions in a mouse chimeric antibody (IgG1); also called anti-PAD4 antibody A11) VH: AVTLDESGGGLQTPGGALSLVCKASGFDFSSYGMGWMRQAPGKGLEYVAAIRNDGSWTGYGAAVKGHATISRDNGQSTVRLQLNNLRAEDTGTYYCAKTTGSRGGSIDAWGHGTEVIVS VL: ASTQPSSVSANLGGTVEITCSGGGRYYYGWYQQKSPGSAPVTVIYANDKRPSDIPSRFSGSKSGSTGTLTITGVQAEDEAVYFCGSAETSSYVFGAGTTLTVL
2.09

More entries:
Respond only with OD 490/630 nm recorded for G9 (antibody, V domains shown, Chicken variable regions in a mouse chimeric antibody (IgG1); also called anti-PAD4 antibody G9) VH: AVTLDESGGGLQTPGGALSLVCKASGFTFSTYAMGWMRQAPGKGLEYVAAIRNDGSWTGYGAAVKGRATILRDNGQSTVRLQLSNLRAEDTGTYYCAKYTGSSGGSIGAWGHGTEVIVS VL: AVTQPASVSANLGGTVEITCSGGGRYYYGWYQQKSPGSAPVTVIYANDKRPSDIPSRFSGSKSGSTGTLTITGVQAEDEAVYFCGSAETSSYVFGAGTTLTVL
1.98
